- System: HEK293 NF-kB-luciferase reporter cells
- PROTOCOL TEXT: NF-kB luciferase reporter activity, robust Z-score vs plate median (robust Z-score (log luminescence)); higher = stronger NF-kB reporter activation
- MEASUREMENT CONDITIONS: TNF 0 ng/mL; TNF treatment time 8.5 h; transfection time 72 h
PROPERTY LABEL: NF-kB luciferase reporter activity
The response must contain the number and no unit.

SEQUENCE CONTENT	NF-kB luciferase reporter activity
AAAGUGCUUCCUUUUAGAGGC	-1.48

// moving on: another record for NF-kB luciferase reporter activity
The recorded NF-kB luciferase reporter activity for UUCUCCAAAAGAAAGCACUUUCUG is -0.171

###

- System: HEK293 NF-kB-luciferase reporter cells
- PROTOCOL TEXT: NF-kB luciferase reporter activity, robust Z-score vs plate median (robust Z-score (log luminescence)); higher = stronger NF-kB reporter activation
- MEASUREMENT CONDITIONS: TNF 40 ng/mL; TNF treatment time 8.5 h; transfection time 72 h
PROPERTY LABEL: NF-kB luciferase reporter activity
The response must contain the number and no unit.

Recorded results for 4 sequences are shown here.
SEQUENCE CONTENT	TEST TARGET	NF-kB luciferase reporter activity
GUCAACACUUGCUGGUUUCCUC	HEK293 NF-kB-luciferase reporter cells	-0.799
UCUCACACAGAAAUCGCACCCGUC	HEK293 NF-kB-luciferase reporter cells	0.598
AAUCCUUGGAACCUAGGUGUGAGU	HEK293 NF-kB-luciferase reporter cells	0.0708
AUAAGACGAGCAAAAAGCUUGU	HEK293 NF-kB-luciferase reporter cells	-1.62

Note to self: NF-kB luciferase reporter activity recorded for GCCCCUGGGCCUAUCCUAGAA was 0.489

response.value for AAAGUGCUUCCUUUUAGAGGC (field: NF-kB luciferase reporter activity) = -0.83

###

- System: HEK293 NF-kB-luciferase reporter cells
- PROTOCOL TEXT: NF-kB luciferase reporter activity, robust Z-score vs plate median (robust Z-score (log luminescence)); higher = stronger NF-kB reporter activation
- MEASUREMENT CONDITIONS: TNF 40 ng/mL; TNF treatment time 8.5 h; transfection time 72 h
Would you mind labelling by NF-kB luciferase reporter activity? At or over -0.4 is 1, under is 0.

SEQUENCE CONTENT	TEST TARGET	ASSIGNED LABEL
CAAAGCGCUUCCCUUUGGAGC	HEK293 NF-kB-luciferase reporter cells	1
AGAGGUAUAGGGCAUGGGAAAA	HEK293 NF-kB-luciferase reporter cells	0
UAGGCAGUGUCAUUAGCUGAUUG	HEK293 NF-kB-luciferase reporter cells	0
AACACACCUGGUUAACCUCUUU	HEK293 NF-kB-luciferase reporter cells	1
UGAGGUAGGAGGUUGUAUAGU	HEK293 NF-kB-luciferase reporter cells	0

Decide: NF-kB luciferase reporter activity of GUGCCUACUGAGCUGAUAUCAGU >= -0.4? 1

Test whether the sequence CCCAGUGUUUAGACUAUCUGUUC records NF-kB luciferase reporter activity of -0.4 or higher. 0

Given GGAGAAAUUAUCCUUGGUGUGU , state whether its NF-kB luciferase reporter activity is at least -0.4. 1

Dear colleague, could you confirm whether CGGGUGGAUCACGAUGCAAUUU has NF-kB luciferase reporter activity at or above -0.4? 0

Entry ACAAAGUGCUUCCCUUUAGAGU : is its NF-kB luciferase reporter activity no less than -0.4? 0

Does the reported NF-kB luciferase reporter activity for UGCUUCCUUUCAGAGGGU fall at or above the -0.4 mark? 1

Hi team, for UGUCUGCCCGCAUGCCUGCCUCU , is the recorded NF-kB luciferase reporter activity at or above -0.4? 1

Is it the case that UCGGGGAUCAUCAUGUCACGAG has NF-kB luciferase reporter activity reaching or exceeding -0.4? 1

// inclusive: NF-kB luciferase reporter activity at least -0.4? input: UGGUAGACUAUGGAACGUA 1

Item CUGUGCGUGUGACAGCGGCUGA with NF-kB luciferase reporter activity of -0.4 or above? 0
